Experiment: melting temperature; melt of duplexes
Conditions: sodium 0.0675 M; strand 1 µM
Rule: Tm under 50 °C gives n, otherwise y.

substance | assigned.category
CGACGTGCGCTATGTGCTG+CAGCACATCGAGCACGTCG ((((((((.(.((((((((+)))))))).).)))))))) | y
CGACGTGCATAATGTGCTG+CAGCACATTTTGCACGTCG (((((((((.(((((((((+))))))))).))))))))) | y
CGACGTGCCTGATGTGCTG+CAGCACATGTCGCACGTCG ((((((((...((((((((+))))))))...)))))))) | n
CGACGTGCGCAATGTGCTG+CAGCACATAGCGCACGTCG ((((((((((.((((((((+)))))))).)))))))))) | y
CGACGTGCTCTATGTGCTG+CAGCACATCCTGCACGTCG ((((((((...((((((((+))))))))...)))))))) | n

----------
Assay: melting temperature; melt of duplexes
Details: sodium 0.0675 M; strand 1 µM
Rule: Tm under 50 °C gives Not fulfilled, otherwise Fulfilled.

substance | assigned.category
CGACGTGCAGAATGTGCTG+CAGCACATTTTGCACGTCG (((((((((.(((((((((+))))))))).))))))))) | Fulfilled
CGACGTGCAGCATGTGCTG+CAGCACATAGGGCACGTCG ((((((((...((((((((+))))))))...)))))))) | Not fulfilled
CGACGTGCCGGATGTGCTG+CAGCACATAGGGCACGTCG (((((((((..((((((((+))))))))..))))))))) | Fulfilled
CGACGTGCACTATGTGCTG+CAGCACATCTCGCACGTCG ((((((((...((((((((+))))))))...)))))))) | Not fulfilled

----------
Assay: melting temperature; melt of duplexes
Details: sodium 0.0675 M; strand 1 µM
Listing of recorded Tm by entry.

substance | Tm
CGACGTGCTATATGTGCTG+CAGCACATTTTGCACGTCG ((((((((.(.((((((((+)))))))).).)))))))) | 50.9 °C
CGACGTGCTAAATGTGCTG+CAGCACATCACGCACGTCG ((((((((...((((((((+))))))))...)))))))) | 49 °C
CGACGTGCCGAATGTGCTG+CAGCACATAGAGCACGTCG ((((((((...((((((((+))))))))...)))))))) | 49.9 °C
CGACGTGCGTCATGTGCTG+CAGCACATTTGGCACGTCG ((((((((...((((((((+))))))))...)))))))) | 48.7 °C
CGACGTGCGCCATGTGCTG+CAGCACATTATGCACGTCG ((((((((...((((((((+))))))))...)))))))) | 47.6 °C
CGACGTGCGCTATGTGCTG+CAGCACATATCGCACGTCG (((((((((.(((((((((+))))))))).))))))))) | 56 °C
CGACGTGCGGTATGTGCTG+CAGCACATCCCGCACGTCG ((((((((((.((((((((+)))))))).)))))))))) | 59.9 °C
CGACGTGCGCGATGTGCTG+CAGCACATACCGCACGTCG (((((((((..((((((((+))))))))..))))))))) | 53.8 °C
CGACGTGCACTATGTGCTG+CAGCACATCACGCACGTCG ((((((((...((((((((+))))))))...)))))))) | 43.3 °C
CGACGTGCGCGATGTGCTG+CAGCACATGTGGCACGTCG ((((((((...((((((((+))))))))...)))))))) | 51.7 °C
CGACGTGCGACATGTGCTG+CAGCACATGCGGCACGTCG ((((((((..(((((((((+)))))))))..)))))))) | 54.4 °C
CGACGTGCAACATGTGCTG+CAGCACATATGGCACGTCG ((((((((.(.((((((((+)))))))).).)))))))) | 49.2 °C
CGACGTGCGTTATGTGCTG+CAGCACATAGGGCACGTCG ((((((((..(((((((((+)))))))))..)))))))) | 52.5 °C
CGACGTGCTAGATGTGCTG+CAGCACATTTAGCACGTCG ((((((((((.((((((((+)))))))).)))))))))) | 56.6 °C
CGACGTGCGCTATGTGCTG+CAGCACATCTAGCACGTCG ((((((((...((((((((+))))))))...)))))))) | 50.4 °C
